- Test system: L1210 leukemia ip in BDF1 mice, survival T/C
- protocol_details: NCI In Vivo Anticancer Drug Screen. Data for tumor model L1210 Leukemia (intraperitoneal) in B6D2F1 (BDF1) mice
- condition_parameters: endpoint: mean survival time; dose: 150.0 mg/kg/injection; schedule: Q01DX009 (ip); vehicle: saline; higher = longer survival
Toxic doses and inconclusive results are not listed.
Recorded T/C by entry
metric: T/C

1) OCC1(CO)CCC1(CO)CO: 105 % of control
2) CCOC(=O)NC(N)=O: 103 % of control
3) COc1cccc(S(C)(=O)=O)c1: 97 % of control
4) O=C(O)C(CSC(c1ccccc1)(c1ccccc1)c1ccccc1)N=Cc1cccs1 (centres undefined): 104 % of control

---

- System: L1210 leukemia ip in BDF1 mice, survival T/C
- protocol_details: NCI In Vivo Anticancer Drug Screen. Data for tumor model L1210 Leukemia (intraperitoneal) in B6D2F1 (BDF1) mice
- condition_parameters: endpoint: mean survival time; dose: 100.0 mg/kg/injection; schedule: Q01DX009 (ip); vehicle: saline; higher = longer survival
Inconclusive results and toxic doses are left out.
metric: T/C

1) CC(C)OP(=O)(CP(=O)(OC(C)C)OC(C)C)OC(C)C: 95 % of control
2) CC1OC(=O)NC1C(=O)O (stereo not drawn): 91 % of control
3) Cn1c(O)c(C=N)c(=O)[nH]c1=O: 86 % of control
4) CC1(C)CC(=O)c2c(cc3c(c2O)C(=O)CC(C)(C)O3)O1: 94 % of control
5) COc1cc(C(O)CN)cc(OC)c1OC (stereo not drawn): 104 % of control
6) NC(=O)NC(NC(N)=O)C(Cl)(Cl)Cl: 101 % of control
7) ClCCC1CNCCN1 (stereo not drawn): 87 % of control
8) CCOC(=O)C1CCCNC1 (stereo not drawn): 96 % of control
9) C=CC1COC=C2CN3CCc4cc(OC)c(O)cc4C3CC21 (stereo not drawn): 104 % of control
10) COc1cc2ccc(C(C)N)cc2cc1OC (stereo not drawn): 105 % of control
11) CCCCCCCCC(=O)N(C)CCO: 100 % of control
12) COC(=O)CC/C(C)=N\NC(=O)c1ccc[n+](C)c1: 96 % of control
13) COC(=O)CCC#N: 101 % of control
14) CCOC(=O)C1CN(C)CCC1=O (stereo not drawn): 123 % of control
15) NC(N)=NC(N)=Nc1ccc(Cl)c(Cl)c1: 91 % of control
16) OCC(O)Cc1ccccc1 (stereo not drawn): 97 % of control
17) CC(=O)NC1CCCC(O)C1 (stereo not drawn): 87 % of control
18) C#CCOC(=O)CCC(=O)OCC#C: 94 % of control
19) O=S(=O)(NO)c1cccc(S(=O)(=O)NO)c1: 97 % of control
20) C/C(=C/c1ccccc1)S(=O)(=O)c1ccccc1: 91 % of control
21) NC(=O)CC(N)c1nn[nH]n1 (stereo not drawn): 89 % of control
22) COc1ccccc1NC(=O)c1cc2ccccc2cc1O: 109 % of control
23) CC1(C)N=C(N)N=C(N)N1c1cccc(OCCCOc2ccc(NC(=O)CBr)cc2)c1: 102 % of control
24) O=C1Nc2nc(=O)nc3[nH]c(=O)nc(n23)N1: 98 % of control
25) O=C(O)C1CC2C3CC(C(=O)O)C(C3)C2C1 (stereo not drawn): 96 % of control
26) CCN(CC)CCCC#CCN1CCOCC1: 93 % of control
27) CCCCCCCCCCN1C(=O)c2ccccc2S1(=O)=O: 95 % of control
28) Nc1nc(=S)nc(N)[nH]1: 97 % of control
